Biological target: Full-length human BTK (C481S) (Homo sapiens (Human), UniProt Q06187, C481S)
Sequence (Q06187 whole entry C481S): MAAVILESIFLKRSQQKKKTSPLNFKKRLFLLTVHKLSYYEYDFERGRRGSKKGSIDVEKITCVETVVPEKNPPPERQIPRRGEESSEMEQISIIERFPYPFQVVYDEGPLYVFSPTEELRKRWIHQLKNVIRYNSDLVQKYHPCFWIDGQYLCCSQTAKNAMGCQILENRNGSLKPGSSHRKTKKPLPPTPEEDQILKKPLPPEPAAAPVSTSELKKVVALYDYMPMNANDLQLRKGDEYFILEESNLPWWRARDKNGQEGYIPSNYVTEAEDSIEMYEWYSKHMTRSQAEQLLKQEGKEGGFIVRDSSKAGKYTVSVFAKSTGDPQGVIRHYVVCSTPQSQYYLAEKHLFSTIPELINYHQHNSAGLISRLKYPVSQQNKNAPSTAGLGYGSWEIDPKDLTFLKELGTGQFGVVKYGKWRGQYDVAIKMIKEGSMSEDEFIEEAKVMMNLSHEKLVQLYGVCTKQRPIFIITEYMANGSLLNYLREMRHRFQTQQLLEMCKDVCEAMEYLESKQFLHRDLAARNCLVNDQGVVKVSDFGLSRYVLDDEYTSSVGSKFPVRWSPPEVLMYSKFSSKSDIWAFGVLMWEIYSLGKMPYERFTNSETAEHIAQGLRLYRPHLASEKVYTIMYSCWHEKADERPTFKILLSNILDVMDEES
Experiment: BTK (C481S) inhibitory activity, Reaction Biology Corporation kinase assay
Details: read-out: IC50(nM) BTK(C481S); (c) ATP concentration 10 μM
Measured Attribute: IC50 (nM)
Give bare numbers, in nM.

get_value(item= `Nc1ncnc2c1c(-c1ccc(Oc3cccc(F)c3)cc1)nn2[C@@H]1CCC[C@@H](O)C1` , readout=IC50) returns 1.7

###

Biological target: Full-length human BTK (C481S) (Homo sapiens (Human), UniProt Q06187, C481S)
Test: BTK (C481S) inhibitory activity, Reaction Biology Corporation kinase assay
Details: IC50(nM) BTK(C481S), (d) ATP concentration 50 μM
Hi there, I'd appreciate the recorded IC50 for every entry that follows.
Numbers only, in nM.

Sample answers from the record:
COc1cccc(Oc2ccc(-c3nn(C4CCC(CO)OC4)c4ncnc(N)c34)cc2)c1F (single isomer, unassigned) [Example 30 Peak1-2] ... 6.7
COc1cccc(Oc2ccc(-c3nn(C4CCC(CO)OC4)c4ncnc(N)c34)cc2)c1F (single isomer, unassigned) [Example 30 Peak1-1] ... 3.7
COc1cccc(Oc2ccc(-c3nn(C4CCC(CO)OC4)c4ncnc(N)c34)cc2)c1F (single isomer, unassigned) [Example 30 Peak2-1] ... 1.1

Kindly note: Full-length human BTK (C481S) (Homo sapiens (Human), UniProt Q06187, C481S), COc1cccc(Oc2ccc(-c3nn(C4CCC(CO)OC4)c4ncnc(N)c34)cc2)c1F (single isomer, unassigned) [Example 30 Peak2-2] , IC50 value reported: 2.8

This collection of values is drawn from patent US12384786B2.
